Reference for the values: patent US20070219214A1

- target.entity: UniProt P21452
- assay.procedure: Binding potency of the test substances to NK2-receptors in vitro ([3H]-SR 48968 displacement)
- Design: expressed in transfected cells; host or cells: CHO cells (membrane preparation)
- assay.setup: human NK2-receptor in CHO cell membranes, [3H]-SR 48968 (saredutant); average of at least three measurements
- Protocol: 2. Determination of the Binding Potency of the Test Substances to NK2-Receptors in Vitro The affinity of test compounds for NK2-receptors can be determined by measuring the ability of the test compound to displace a radiolabeled ligand from its specific binding site. The radiolabel used in this assay is [^3H]-SR 48968 (saredutant). […] Bound radioactivity was measured with a liquid scintillation counter (total binding). […]
Entries annotated with measured pKi, binding potency to NK2-receptors

{"columns": ["smiles.string", "pKi, binding potency to NK2-receptors"],
 "data": [
  ["CN(C)C(=O)C1(N2CCCCC2)CCN(CC[C@H](CN(C)C(=O)C2CCCCC2)c2ccc(Cl)c(Cl)c2)CC1", 8.8],
  ["CN(C)C(=O)C1(N2CCCCC2)CCN(CC[C@H](CN(C)C(=O)c2ccc(F)cc2)c2ccc(Cl)c(Cl)c2)CC1", 9.6],
  ["CN(C)C(=O)C1(N2CCCCC2)CCN(CC[C@H](CN(C)C(=O)c2ccc(F)c(F)c2F)c2ccc(Cl)c(Cl)c2)CC1", 9.0],
  ["CN(C)C(=O)C1(N2CCCCC2)CCN(CC[C@H](CN(C)C(=O)c2ccc(F)c(F)c2)c2ccc(Cl)c(Cl)c2)CC1", 9.1],
  ["CN(C)C(=O)C1(N2CCCCC2)CCN(CC[C@H](CN(C)C(=O)c2ccccc2O)c2ccc(Cl)c(Cl)c2)CC1", 8.7],
  ["CN(C)C(=O)C1(N2CCCCC2)CCN(CC[C@H](CN(C)C(=O)c2cc(F)ccc2F)c2ccc(Cl)c(Cl)c2)CC1", 9.2],
  ["CN(C)C(=O)C1(N2CCCCC2)CCN(CC[C@H](CN(C)C(=O)c2ccc(F)cc2F)c2ccc(Cl)c(Cl)c2)CC1", 9.0],
  ["CN(C)C(=O)C1(N2CCCCC2)CCN(CC[C@H](CN(C)C(=O)c2cc(C#N)c3ccccc3c2)c2ccc(Cl)c(Cl)c2)CC1", 8.7]
]}

###

- target.entity: human NK2-receptor (Homo sapiens, UniProt P21452)
- assay.procedure: Functional cellular test, Ca2+ measurements using FLIPR for NK2 activity;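 also: CHO cells stably expressing the human receptor, loaded with a calcium dye, antagonist inhibition of ligand-evoked intracellular calcium rise read as peak fluorescence change on FLIPR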
parameter: Kb

{"columns": ["molecule", "reading"],
 "data": [
  ["CC(=O)Oc1ccc(C(=O)N(C)C[C@@H](CCN2CCC(C(=O)N(C)C)(N3CCCCC3)CC2)c2ccc(Cl)c(Cl)c2)cc1", "3.16 nM"],
  ["CN(C)C(=O)C1(N2CCCC2)CCN(CCC(CN(C)C(=O)c2cc(C#N)cc3ccccc23)c2ccc(Cl)c(Cl)c2)CC1 (stereo not drawn)", "0.501 nM"],
  ["CN(C)C(=O)C1(N2CCCCC2)CCN(CCC(CN(C)C(=O)C2CCCC2)c2ccc(Cl)c(Cl)c2)CC1 (stereo not drawn)", "1.26 nM"]
]}

###

- target.entity: UniProt:P21452
- assay.procedure: Binding potency of the test substances to NK2-receptors in vitro ([3H]-SR 48968 displacement)
- Parameters: expressed in transfected cells; host or cells: CHO cells (membrane preparation)
- assay.setup: human NK2-receptor in CHO cell membranes, [3H]-SR 48968 (saredutant); average of at least three measurements; read-out: pKi, binding potency to NK2-receptors (converted)
parameter: Ki (nM)

{"columns": ["molecule", "value.unit", "reading"],
 "data": [
  ["CCC(=O)N(CC1CC1)C1CCN(CC[C@H](CN(C)C(=O)c2ccccc2)c2ccc(Cl)c(Cl)c2)CC1", "nM", 2],
  ["CN(C)C(=O)C1(N2CCCCC2)CCN(CCC(CN(C)C(=O)c2ccsc2)c2ccc(Cl)c(Cl)c2)CC1 (stereo not shown)", "nM", 1.58],
  ["CN(C)C(=O)C1(N2CCCCC2)CCN(CCC(CN(C)C(=O)Cc2ccccc2)c2ccc(Cl)c(Cl)c2)CC1 (stereo not shown)", "nM", 12.6],
  ["CN(C)C(=O)C1(N2CCCCC2)CCN(CCC(CN(C)C(=O)c2cc(=O)c3ccccc3o2)c2ccc(Cl)c(Cl)c2)CC1 (stereo not shown)", "nM", 2.51],
  ["CN(C)C(=O)C1(N2CCCCC2)CCN(CCC(CN(C)C(=O)c2ccc3c(c2)OC(F)(F)O3)c2ccc(Cl)c(Cl)c2)CC1 (stereo not shown)", "nM", 3.98],
  ["CN(C)C(=O)C1(N2CCCCC2)CCN(CCC(CN(C)C(=O)c2ccc3occc3c2)c2ccc(Cl)c(Cl)c2)CC1 (stereo not shown)", "nM", 2],
  ["CNC(=O)C1(N2CCCCC2)CCN(CC[C@H](CN(C)C(=O)c2ccccc2)c2ccc(Cl)c(Cl)c2)CC1", "nM", 0.398]
]}

###

Entries annotated with measured Ki
- target.entity: human NK2-receptor (Homo sapiens)
- Sequence (P21452 1-398): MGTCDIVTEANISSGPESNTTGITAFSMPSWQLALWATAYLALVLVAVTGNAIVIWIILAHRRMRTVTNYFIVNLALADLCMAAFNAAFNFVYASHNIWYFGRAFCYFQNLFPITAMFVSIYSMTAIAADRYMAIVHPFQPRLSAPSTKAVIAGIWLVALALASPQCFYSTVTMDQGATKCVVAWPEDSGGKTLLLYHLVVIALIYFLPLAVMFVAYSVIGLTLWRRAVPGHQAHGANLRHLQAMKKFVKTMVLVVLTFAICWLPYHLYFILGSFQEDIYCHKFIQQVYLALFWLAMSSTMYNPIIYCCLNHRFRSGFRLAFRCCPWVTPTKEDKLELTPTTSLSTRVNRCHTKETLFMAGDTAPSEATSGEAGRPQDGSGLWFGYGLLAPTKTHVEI
- assay.procedure: Binding potency of the test substances to NK2-receptors in vitro ([3H]-SR 48968 displacement)
- Set-up: expressed in transfected cells; host or cells: CHO cells (membrane preparation)
- assay.setup: human NK2-receptor in CHO cell membranes, [3H]-SR 48968 (saredutant); average of at least three measurements; read-out: pKi, binding potency to NK2-receptors (converted)
- Experimental: 2. Determination of the Binding Potency of the Test Substances to NK2-Receptors in Vitro The affinity of test compounds for NK2-receptors can be determined by measuring the ability of the test compound to displace a radiolabeled ligand from its specific binding site. The radiolabel used in this assay is [^3H]-SR 48968 (saredutant). […] Bound radioactivity was measured with a liquid scintillation counter (total binding). […]

{"columns": ["compound", "value.unit", "Ki"],
 "data": [
  ["CN(C)C(=O)C1(N2CCCCC2)CCN(CCC(CN(C)C(=O)CCc2ccc(O)cc2)c2ccc(Cl)c(Cl)c2)CC1 (centres unmarked)", "nM", 2.51],
  ["CN(C)C(=O)C1(N2CCCCC2)CCN(CCC(CN(C)C(=O)c2ccccc2F)c2ccc(Cl)c(Cl)c2)CC1 (centres unmarked)", "nM", 3.16],
  ["CN(C)C(=O)C1(N2CCCCC2)CCN(CCC(CN(C)C(=O)c2c(-c3ccccc3)oc3ccccc3c2=O)c2ccc(Cl)c(Cl)c2)CC1 (centres unmarked)", "nM", 12.6],
  ["CN(C)C(=O)C1(N2CCCCC2)CCN(CCC(CN(C)C(=O)c2cccc(C(F)(F)F)c2)c2ccc(Cl)c(Cl)c2)CC1 (centres unmarked)", "nM", 5.01],
  ["CN(C)C(=O)C1(N2CCCCC2)CCN(CCC(CN(C)C(=O)C2CC2c2ccccc2)c2ccc(Cl)c(Cl)c2)CC1 (centres unmarked)", "nM", 12.6],
  ["CN(C)C(=O)C1(N2CCCCC2)CCN(CCC(CN(C)C(=O)c2ccccc2C(=O)O)c2ccc(Cl)c(Cl)c2)CC1 (centres unmarked)", "nM", 5.01],
  ["CN(C)C(=O)C1(N2CCCCC2)CCN(CCC(CN(C)C(=O)c2cc[n+]([O-])cc2)c2ccc(Cl)c(Cl)c2)CC1 (centres unmarked)", "nM", 31.6],
  ["CC(=O)Oc1ccc(C(=O)N(C)C[C@@H](CCN2CCC(C(=O)N(C)C)(N3CCCCC3)CC2)c2ccc(Cl)c(Cl)c2)cc1", "nM", 1],
  ["CSc1ncc(C(=O)N(C)CC(CCN2CCC(C(=O)N(C)C)(N3CCCCC3)CC2)c2ccc(Cl)c(Cl)c2)n1Cc1ccccc1 (centres unmarked)", "nM", 25.1],
  ["CN(C)C(=O)C1(N2CCCCC2)CCN(CCC(CN(C)C(=O)c2c(F)c(F)c(F)c(F)c2F)c2ccc(Cl)c(Cl)c2)CC1 (centres unmarked)", "nM", 12.6],
  ["CN(C)C(=O)C1(N2CCCCC2)CCN(CCC(CN(C)C(=O)c2ccccc2Br)c2ccc(Cl)c(Cl)c2)CC1 (centres unmarked)", "nM", 5.01],
  ["CN(C)C(=O)C1(N2CCCCC2)CCN(CCC(CN(C)C(=O)c2ccc(C#N)cc2)c2ccc(Cl)c(Cl)c2)CC1 (centres unmarked)", "nM", 7.94],
  ["CN(C[C@@H](CCN1CCC(C(=O)N2CCCC2)(N2CCCCC2)CC1)c1ccc(Cl)c(Cl)c1)C(=O)c1ccccc1", "nM", 1],
  ["CN(C)C(=O)C1(N2CCCCC2)CCN(CCC(CN(C)C(=O)C2CCCC2)c2ccc(Cl)c(Cl)c2)CC1 (centres unmarked)", "nM", 2]
]}
